settings: buffer; pH 7.4; 200.0 µM
The threshold is inclusive: solubility kinetic of exactly 20 µg/mL counts as true; values below receive false.

Problem: Determine whether measured solubility kinetic meets or exceeds 20 µg/mL for COc1ccc(/C=C(\C#N)C(=O)c2cccn2C)cc1
Solution: false

Problem: Determine whether measured solubility kinetic meets or exceeds 20 µg/mL for Cc1ccc2oc(=O)n(CCOc3ccccc3C)c2c1
Solution: false

Problem: Determine whether measured solubility kinetic meets or exceeds 20 µg/mL for Cc1ccc(S(=O)(=O)NC2CCCCCC2)cc1C(N)=O
Solution: true

Problem: Determine whether measured solubility kinetic meets or exceeds 20 µg/mL for CNC(=S)N(CCCO)Cc1cc2cc3c(cc2[nH]c1=O)OCO3
Solution: false

Problem: Determine whether measured solubility kinetic meets or exceeds 20 µg/mL for N#C/C(=C\c1ccc(F)cc1)C(=O)Nc1ccccn1
Solution: false

Problem: Determine whether measured solubility kinetic meets or exceeds 20 µg/mL for CC1CCCCN1C(=O)c1ccc(C(=O)c2ccccc2)cc1 (stereo not given)
Solution: true

Problem: Determine whether measured solubility kinetic meets or exceeds 20 µg/mL for NC(=O)NC(Cc1ccccc1)C(=O)NNC(=O)COc1ccccc1Cl (stereo not given)
Solution: true

Problem: Determine whether measured solubility kinetic meets or exceeds 20 µg/mL for COc1ccc([N+](=O)[O-])cc1NC(=O)c1cccnc1
Solution: true

Problem: Determine whether measured solubility kinetic meets or exceeds 20 µg/mL for CCCCCOc1ccc(NC2=CC(=O)CCC2)cc1
Solution: true

Problem: Determine whether measured solubility kinetic meets or exceeds 20 µg/mL for CSCC(=O)Nc1nc(-c2ccc3c(c2)OCCO3)cs1
Solution: false

====

For each entry below, report its solubility kinetic value.
conditions: buffer; pH 7.4; 200.0 µM
Reply numerically in µg/mL, unit not repeated.

Problem: For the molecule CCc1cccc(CC)c1-n1c(SCC(=O)N2CCc3ccccc32)nc(O)cc1=O , what solubility kinetic is on record?
Solution: 60

Problem: For the molecule Cc1[nH]c2ccccc2c1-c1csc(N)n1 , what solubility kinetic is on record?
Solution: 28.1

Problem: For the molecule C(=Nc1cccc2c(N=Cc3ccco3)cccc12)c1ccco1 , what solubility kinetic is on record?
Solution: 46.7

Problem: For the molecule CC(=O)Nc1nc2ccc(S(=O)(=O)N3CCCC3)cc2s1 , what solubility kinetic is on record?
Solution: 3.1

Problem: For the molecule O=C(Cc1ccc(Br)cc1)NCc1ccccc1 , what solubility kinetic is on record?
Solution: 4.1

Problem: For the molecule O=C(CN1CCCCCC1)Nc1ccc(Br)cn1 , what solubility kinetic is on record?
Solution: 33.7

Problem: For the molecule Cc1cc(C(C)(C)C)cc(S(=O)(=O)Nc2ccc(C(=O)O)cc2)c1C , what solubility kinetic is on record?
Solution: 40.8

Problem: For the molecule COc1ccc(NC(=O)c2cc(F)cc(F)c2)cc1S(=O)(=O)N1CCCCC1 , what solubility kinetic is on record?
Solution: 5.1

Problem: For the molecule CN(CC(=O)NCc1ccc2c(c1)OCO2)S(=O)(=O)c1ccc(Cl)cc1 , what solubility kinetic is on record?
Solution: 8.6

Problem: For the molecule Cn1ccnc1C(O)(c1ccccc1)c1ccccc1 , what solubility kinetic is on record?
Solution: 35.4

Problem: For the molecule CCC(=O)NC(=S)Nc1cccc(Cl)c1N1CCCC1 , what solubility kinetic is on record?
Solution: 0.3

Problem: For the molecule N#C/C(=C\c1cccs1)C(=O)c1ccccc1 , what solubility kinetic is on record?
Solution: 26.3

Problem: For the molecule CCn1c(/C=C/c2ccc(O)cc2)nc2ccccc2c1=O , what solubility kinetic is on record?
Solution: 2.8

Problem: For the molecule CC1CCN(C(=O)CS(=O)(=O)Cc2ccccc2)CC1 , what solubility kinetic is on record?
Solution: 42.3

Problem: For the molecule Cc1nc(SCC(=O)N2CCOCC2)c2c(C)c(C)sc2n1 , what solubility kinetic is on record?
Solution: 49.1

Problem: For the molecule CCOc1ccc(NC(=S)NC(=O)Cc2ccccc2)cc1 , what solubility kinetic is on record?
Solution: 1.8

Problem: For the molecule O=C(c1ccccc1F)N1CCN=C1c1ccccc1 , what solubility kinetic is on record?
Solution: 36.2

Problem: For the molecule CCC(C)c1ccc(C(CC)NC(=O)C2CCCO2)cc1 (stereo not given) , what solubility kinetic is on record?
Solution: 34.5

Problem: For the molecule CCOC(=O)C1=C(COC(=O)/C=C/c2cccc(F)c2)NC(=O)NC1C (stereo not given) , what solubility kinetic is on record?
Solution: 4.6

====

conditions: buffer; pH 7.4; 200.0 µM
Reported Endpoint: solubility kinetic (µg/mL)
Reply numerically in µg/mL, unit not repeated.

Problem: For the molecule Cc1ccc(/C=C2/C(=O)ON=C2c2ccccc2)o1 , what solubility kinetic is on record?
Solution: 38

Problem: For the molecule O=C(CSc1ccccc1)Nc1ccc(Cl)c(S(=O)(=O)N2CCOCC2)c1 , what solubility kinetic is on record?
Solution: 14.6

Problem: For the molecule CN(Cc1ccc2c(c1)OCCO2)C(=O)CN1C(=O)NC2(CCCCC2)C1=O , what solubility kinetic is on record?
Solution: 50.2

====

For each entry below, report its solubility kinetic value.
conditions: buffer; pH 7.4; 200.0 µM

Problem: For the compound CNC(=O)c1ccccc1-c1cn(C)c2ccccc2c1=O , what solubility kinetic is on record?
Solution: > 43.9 µg/mL

Problem: For the compound C=CCN1CCN(C(=O)CSc2ccccc2)CC1 , what solubility kinetic is on record?
Solution: > 41.5 µg/mL

Problem: For the compound COc1ccccc1OCCNC(=O)C1CCN(C(C)=O)CC1 , what solubility kinetic is on record?
Solution: > 48.1 µg/mL

Problem: For the compound O=C(O)CCN1C(=O)c2ccc(NC(=O)CCc3ccccc3)cc2C1=O , what solubility kinetic is on record?
Solution: > 55 µg/mL

Problem: For the compound CN(C)c1cccc2c1c(NS(=O)(=O)c1cn(C)cn1)nn2C , what solubility kinetic is on record?
Solution: > 50.2 µg/mL

Problem: For the compound CCCc1nc2cc3c(cc2[nH]1)n(C)c(=O)n3C.Cl , what solubility kinetic is on record?
Solution: > 42.1 µg/mL

Problem: For the compound CC(C)n1c(O)c(C=NCc2cccnc2)c(=O)[nH]c1=S , what solubility kinetic is on record?
Solution: > 45.7 µg/mL

Problem: For the compound CC(C)c1nc2oc3c(=O)[nH]cnc3c2c2c1COC(C)(C)C2 , what solubility kinetic is on record?
Solution: > 47 µg/mL

Problem: For the compound CCN(CC)C(=O)c1ccc(-c2nnc(OC)c3ccccc23)cc1 , what solubility kinetic is on record?
Solution: > 50.3 µg/mL

Problem: For the compound Cn1cnc(S(=O)(=O)NC2CCN(Cc3c(F)cccc3Cl)CC2)c1 , what solubility kinetic is on record?
Solution: > 58 µg/mL

Problem: For the compound CCN(CC)CCNc1ccc(CO)c2sc3ccccc3c(=O)c12 , what solubility kinetic is on record?
Solution: > 53.5 µg/mL

Problem: For the compound COc1ccc(OC)c(NC(=O)c2nc3ccccc3s2)c1 , what solubility kinetic is on record?
Solution: < 0.3 µg/mL

Problem: For the compound Cc1ccccc1C(=O)NCC(=O)c1ccccc1 , what solubility kinetic is on record?
Solution: > 38 µg/mL

Problem: For the compound COc1ccc(S(=O)(=O)N2CCOCC2)cc1NC(=O)CC(C)c1ccccc1 (stereo not drawn) , what solubility kinetic is on record?
Solution: 9.9 µg/mL

Problem: For the compound O=C(CCNC(=O)c1ccco1)Nc1ccc(Cl)cc1F , what solubility kinetic is on record?
Solution: > 46.6 µg/mL

Problem: For the compound CC(C)CCNC(=O)c1ccc2c(Cl)c3c(nc2c1)CCC3 , what solubility kinetic is on record?
Solution: 0.5 µg/mL

Problem: For the compound N#CCc1ccc(NC(=O)Cn2c(=O)oc3ccccc32)cc1 , what solubility kinetic is on record?
Solution: 6.7 µg/mL

Problem: For the compound COc1ccc(OCC(=O)NC2CCCc3ccccc32)cc1 (stereo not drawn) , what solubility kinetic is on record?
Solution: 42.4 µg/mL

Problem: For the compound Cc1cc(=O)oc2cc(OCC(=O)N3CCC(C(N)=O)CC3)ccc12 , what solubility kinetic is on record?
Solution: > 51.7 µg/mL

Problem: For the compound Cc1nc(C(F)(F)F)ccc1C(=O)NN1CCOCC1 , what solubility kinetic is on record?
Solution: > 43.4 µg/mL

Problem: For the compound Cc1ccc(S(=O)(=O)C(C#N)=C2N(C)c3ccccc3N2C)cc1 , what solubility kinetic is on record?
Solution: 7.9 µg/mL

Problem: For the compound Cc1nc2cc(NS(=O)(=O)c3ccccc3)ccc2n1C , what solubility kinetic is on record?
Solution: 15.6 µg/mL

Problem: For the compound NC(=O)CSc1ccc(S(=O)(=O)N2CCOCC2)cn1 , what solubility kinetic is on record?
Solution: > 47.6 µg/mL

Problem: For the compound Cc1ccc(-n2nc3c(c2NC(=O)C(C)(C)C)CS(=O)(=O)C3)cc1 , what solubility kinetic is on record?
Solution: > 52.1 µg/mL

Problem: For the compound C=CCn1c(SCCCC)nc([O-])cc1=O.[NH4+] , what solubility kinetic is on record?
Solution: 22.4 µg/mL

Problem: For the compound O=C(NCC1CCN(S(=O)(=O)c2ccccc2)CC1)Nc1ccccc1 , what solubility kinetic is on record?
Solution: 3.6 µg/mL

Problem: For the compound O=C(Cn1c(CO)nc2ccccc21)Nc1ccc2c(c1)OCCCO2 , what solubility kinetic is on record?
Solution: > 53 µg/mL

Problem: For the compound Cc1ccc(N=C2C(=O)Nc3ccc(Br)cc32)cc1 , what solubility kinetic is on record?
Solution: 1.1 µg/mL

Problem: For the compound CCCOc1ccc(/C=C/C(=O)NC2CCCCC2)cc1 , what solubility kinetic is on record?
Solution: < 0.6 µg/mL

Problem: For the compound COc1ccc(N2CCOCC2)c(NC(=O)c2ccco2)c1 , what solubility kinetic is on record?
Solution: 38.4 µg/mL

Problem: For the compound Cc1cc(C)c2sc(N)nc2c1 , what solubility kinetic is on record?
Solution: 25.1 µg/mL

Problem: For the compound CC(C)(C)c1ccc(/C=C(\C#N)C(=O)Nc2ccccn2)cc1 , what solubility kinetic is on record?
Solution: 0.6 µg/mL

Problem: For the compound COc1ccc(C)cc1NC(=O)CN(C)C1CCCCC1 , what solubility kinetic is on record?
Solution: 30.9 µg/mL

Problem: For the compound COc1ccc(CC(=O)Nc2cc(Cl)ccc2C(=O)O)cc1 , what solubility kinetic is on record?
Solution: > 48 µg/mL

Problem: For the compound NC(=O)c1cccc2ccccc12 , what solubility kinetic is on record?
Solution: > 25.7 µg/mL

Problem: For the compound O=C1CSC(c2ccc(F)cc2)N1c1c(F)cccc1F (stereo not drawn) , what solubility kinetic is on record?
Solution: 31.2 µg/mL

Problem: For the compound CC(CC(=O)NCCc1ccc(F)cc1)c1ccccc1 (stereo not drawn) , what solubility kinetic is on record?
Solution: 39.3 µg/mL

Problem: For the compound COc1ccccc1CNC(=S)NC1CCCCC1 , what solubility kinetic is on record?
Solution: > 41.8 µg/mL
